- Test System: CD3 epsilon/gamma heterodimer (Homo sapiens, UniProt P07766;P09693 P07766:23-126,P09693:23-116)
- Sequence (P07766 23-126, chain 1 of 2): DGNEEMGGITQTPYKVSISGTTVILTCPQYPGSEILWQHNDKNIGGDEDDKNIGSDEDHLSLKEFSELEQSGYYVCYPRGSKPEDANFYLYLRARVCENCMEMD
- Sequence (P09693 23-116, chain 2 of 2): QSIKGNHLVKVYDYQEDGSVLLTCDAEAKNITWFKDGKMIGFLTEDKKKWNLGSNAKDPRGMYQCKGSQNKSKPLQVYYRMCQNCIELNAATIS
- Test Description: SPR; steady state; kinetic 4.1 nM (Table 6)
- Run Parameters: tags: C-terminal human IgG1 Fc fusion, AcroBiosystems; chain copies: heterodimer 1:1 (inferred); label: 5'-biotin-TEG
- Procedure: Binding affinity measurements were performed using a BIAcore T200 instrument (GE Healthcare). […] The interactions were measured in the “Single Kinetics Cycle” mode at a flow rate of 30 μl/min and by injecting different concentrations of human CD3 ε/γ, CD3 ε/δ, IgG1 Fc and mouse CD3 ε/δ (Sino Biological). […] All kinetic data of the interaction were evaluated using the BIAcore T200 evaluation software. […]
pKd: −log10 of the molar value.
Value Type: pKd

GGAGTGGAGTATTCCGGGTTTGGCATCGGGCCTGGCGAAG (ssDNA) [CELTIC_4s] : 6.93
